- Target Under Test: Calcium and integrin-binding protein 1 (Homo sapiens)
- Test Name: Primary qHTS for Identification of Calcium Integrin Binding Protein 1 (CIB1) Competitor (AID 1508620)
- Experimental Conditions: CIB1-GST / FITC-alphaIIb peptide fluorescence polarization; series mostly up to 114 µM
Results filed as inconclusive are left out. Active and inactive are the calls of the source. The call rests on the fitted dose curve; in most records, active means well fitted inhibition curve with a large enough effect; inconclusive means small, poorly fitted or top-dose-only effect; inactive means flat fitted curve, though single readings scatter.
The categories you may choose from are YES = active, NO = inactive

Solved cases below.
Query: Would you mind telling me which call this test gave `Cc1ccc(S(=O)(=O)Nc2ccc(C(=O)Nc3nc(-c4ccccc4)cs3)c(Cl)c2)cc1` ?
Result: NO

Query: Here is the next compound: `CC(C)c1ccccc1-c1nc(NCc2ccc(-c3cccnc3)cc2)c2occc2n1`
Result: NO

Query: Here is the next compound: `O=S(=O)(c1ccc2c(c1)OCCO2)N1CCCN(S(=O)(=O)c2c(F)cccc2F)CC1`
Result: NO

Next:
Query: Would you mind telling me which call this test gave `Cc1cc(C)nc(NC(=S)N2CCN(c3ccc4nsnc4c3)CC2)c1` ?
Result: YES

Query: Here is the next compound: `O=S(=O)(c1cccc(Br)c1)N1CCN(S(=O)(=O)c2ccc3c(c2)OCCO3)CC1`
Result: NO
